Assay: Solubility measurement
Format: physicochemical

# SMILES_DATA, Aqueous solubility at 1 mg/ml
records = [
    ("C[C@@H](O)CNC(=O)N1CC(Oc2ccc(Cl)cc2)C1", "Soluble"),
    ("C[C@@H](O)CNC(=O)N1CC(Oc2ccc(C(F)(F)F)cc2)C1", "Soluble"),
    ("C=CCNC(=O)N1CC(Oc2ccc(C(F)(F)F)cc2)C1", "Not soluble"),
    ("CCCNC(=O)N1CC(Oc2ccc(Cl)cc2)C1", "Not soluble"),
    ("NC(=O)N1CC(Oc2ccc(Cl)cc2)C1", "Not soluble"),
]
